test system: Plasmodium berghei; experiment: Screen against P. berghei liver stage (PbLuc), transformed with Luciferase, at 2uM; assay type: functional, HepG2; conditions: tested at 2 uM
The whole screen tested about 68,000 compounds, of which about 2,700 (4%) showed an effect of 50% or more. Only a selection was taken, and strong results are over-represented in it overall.
MEASURED PROPERTY: INHIBITION (%)
# value in %; strip the unit string

O=C(C[C@@H]1COC[C@H]2CN(C(=O)c3cccnc3)C[C@@H]12)N1CCOCC1 : 22.89
CN(C)CC(=O)N1C[C@H]2CCC[C@@]2(COc2ccccn2)C1 : 19.44

Fill blank: measured INHIBITION of the compound CC1CCC(NC(=O)Nc2ccc(CC(=O)N(C)C)cc2)CC1 (configuration not stated) is ____.
35.5

Fill blank: measured INHIBITION of the compound Cc1nnc(CN2CCOC(c3ccc(Cl)cc3)C2)o1 (configuration not stated) is ____.
57.75

Fill blank: measured INHIBITION of the compound `COc1cc(C)ccc1C(=O)N1CCC2(CCC(=O)N(C(C)C)C2)CC1` is ____.
-4.62

Fill blank: measured INHIBITION of the compound `Cc1ccc(CN2CCc3nnc(CN4CCCC4=O)n3CC2)o1` is ____.
47.97

Fill blank: measured INHIBITION of the compound `CC(C)N1CCCn2c(nc(CNC(=O)c3nccn3C)cc2=O)C1` is ____.
-25.29

Fill blank: measured INHIBITION of the compound O=C(CN1CCC2(CCCN(CCO)C2=O)C1)NCCc1ccccc1 (configuration not stated) is ____.
-27.89

Fill blank: measured INHIBITION of the compound `Cc1nn(C)c(C)c1NC(=O)Nc1cccnc1N1CCCC1` is ____.
15.28

Fill blank: measured INHIBITION of the compound `O=C(Cn1ccc(=O)[nH]c1=O)NCc1cccnc1OCC(F)(F)F` is ____.
51.76

Fill blank: measured INHIBITION of the compound `Cn1cnc2c(N3CCCC3)nc(C3CCN(CC4CC4)CC3)cc21` is ____.
25.94

Fill blank: measured INHIBITION of the compound Cc1ccc(C(CCNCCN(C)C)C2CCOC(C)(C)C2)cc1 (configuration not stated) is ____.
26.52

Fill blank: measured INHIBITION of the compound N#Cc1cccc(NC(=O)C2CCCN2c2nccs2)c1 (configuration not stated) is ____.
6.77

Fill blank: measured INHIBITION of the compound `O=C(c1csnn1)N1CCc2[nH]nc(COc3cccc(Cl)c3)c2C1` is ____.
47.89

Fill blank: measured INHIBITION of the compound `COC(=O)c1cccc(C(=O)N2CCN(C(=O)N(C)C)CC2(C)C)c1` is ____.
7.42

Fill blank: measured INHIBITION of the compound CN1CC(C(=O)NCc2cccnc2OCC(F)(F)F)CC1=O (configuration not stated) is ____.
9.21

Fill blank: measured INHIBITION of the compound O=C(c1cc(-c2ccc(O)cc2)n[nH]1)N1CCCC1c1cccnc1 (configuration not stated) is ____.
35.01

Fill blank: measured INHIBITION of the compound c1ccc(CN2CCOCC3(CCN(C4CCOCC4)C3)C2)cc1 (configuration not stated) is ____.
-28.17

Fill blank: measured INHIBITION of the compound `COc1ccccc1-n1nc(C(C)C)nc1Cc1nnc(N)s1` is ____.
49.32

Fill blank: measured INHIBITION of the compound `O=c1nc(SCc2cccnc2)c2c(n1CCO)CCCC2` is ____.
13.46

Fill blank: measured INHIBITION of the compound `COc1ccc(NC(=O)N2CCC(c3noc(C)n3)CC2)cc1C` is ____.
-30.88
